test-target: Pro-neuregulin-1, membrane-bound isoform (Homo sapiens) (UniProt Q02297)
Sequence (Q02297 whole entry, looked up, canonical isoform): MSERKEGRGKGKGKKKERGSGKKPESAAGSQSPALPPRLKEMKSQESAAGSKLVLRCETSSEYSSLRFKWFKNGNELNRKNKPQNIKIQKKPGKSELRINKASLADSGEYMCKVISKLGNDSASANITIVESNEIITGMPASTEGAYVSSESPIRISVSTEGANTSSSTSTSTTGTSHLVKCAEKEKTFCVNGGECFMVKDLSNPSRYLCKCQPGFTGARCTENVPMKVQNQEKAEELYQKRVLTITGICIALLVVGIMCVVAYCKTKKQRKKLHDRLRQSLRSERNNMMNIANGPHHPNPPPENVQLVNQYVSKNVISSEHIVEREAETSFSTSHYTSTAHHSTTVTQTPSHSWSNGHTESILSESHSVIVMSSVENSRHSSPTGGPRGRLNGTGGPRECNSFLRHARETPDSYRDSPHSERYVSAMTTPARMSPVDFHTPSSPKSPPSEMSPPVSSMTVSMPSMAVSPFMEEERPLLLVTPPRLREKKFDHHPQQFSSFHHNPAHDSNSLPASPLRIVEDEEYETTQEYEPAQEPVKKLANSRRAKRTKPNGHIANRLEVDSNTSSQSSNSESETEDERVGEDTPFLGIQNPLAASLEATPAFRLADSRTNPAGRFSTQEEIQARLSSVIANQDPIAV
procedure-details: NRG1 binders on small-molecule microarrays, primary screen, psychiatric disease protein project, biochemical, small-molecule microarray, fluorescence 635/667 (AID 1075);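 note: score combines 667 nm spot fluorescence with signal to noise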
particulars: NRG1 binding, 635 nm fluorescence, higher = more signal
# cutoff -0.4 applies to composite z-score; >= gives criterion met, < gives criterion not met

{"columns": ["compound", "discrete-label"],
 "data": [
  ["COC(=O)CC=C[C@@H](C)[C@@H](C=NO[C@H](C)c1cn([C@@H]2COC[C@H]2O)nn1)NS(=O)(=O)c1ccc(C)cc1", "criterion met"],
  ["COc1cccc([C@H]2Oc3ccc(OC)cc3C(=NOC[C@@H](C)[C@H](OCc3ccccc3)C(C)C)[C@@H]2O)c1", "criterion met"],
  ["COC(=O)CC=C[C@@H](C)[C@@H](C=NO[C@@H](C)c1cn([C@H](CO)Cc2ccccc2)nn1)OC", "criterion met"],
  ["CC(=O)OC[C@H]1OC(ON=CC[C@@H]2C=C[C@H](OC(C)=O)[C@@H](COC(C)=O)O2)[C@H](OC(C)=O)[C@@H](OC(C)=O)[C@@H]1OC(C)=O (stereo not given in full)", "criterion not met"]
]}
